# surviving fraction annotations
# System: E57 (patient-derived glioblastoma stem cells of mesenchymal subtype);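 also: nuclei counted by high-content imaging of Hoechst-stained cells in laminin-coated 384-well plates, relative to 0.1% DMSO vehicle wells, with staurosporine as cell-death control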
# protocol_notes: surviving fraction (nuclei count normalised to DMSO); higher = more cells surviving (less toxic)
# condition_details: 333.3 nM; exposure time: 72 h
Where a name gives a salt, the structure may show the parent alone.
I'd appreciate a reply containing only the number, no unit.

Known results for compounds:
CC(C)C[C@H](NC(=O)CNC(=O)c1cc(Cl)ccc1Cl)B(O)O [Ixazomib]; 0.00889
Cc1[nH]nc(C(F)(F)F)c1Cc1sc2c(c1C(=O)N1C[C@](C)(O)CO1)c(=O)n(C)c(=O)n2C(C)C [AZD3965]; 0.917
O=C(/C=C\n1cnc(-c2cc(C(F)(F)F)cc(C(F)(F)F)c2)n1)NNc1cnccn1 [Selinexor]; 0.313
Nc1ccn([C@@H]2O[C@H](CO)[C@@H](O)[C@@H]2O)c(=O)n1 [Cytarabine]; 0.179

Okay, next one:
Ask: Form field: reported surviving fraction of CN[C@@H]1[C@@H](O)[C@@H](O[C@@H]2[C@@H](O)[C@H](O[C@H]3OC(CN)=CC[C@H]3N)[C@@H](N)C[C@H]2N)OC[C@]1(C)O [Sisomicin sulfate]
Result: 0.927

All figures here come from the supplement of paper PMC13207355.
